Measured values drawn from the supplement of paper PMC10065799 for this set.

- Test system: Fer (mouse)
- Procedure Text: phosphorylation enrichment, bacterial display (enrichment ratio); higher = better substrate or ligand; peptides without Tyr show the background;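 further: 11-residue human phosphosite peptides and single-mutation variants displayed on the E. coli surface, counted by deep sequencing, each peptide's frequency after selection divided by its frequency in the unselected input library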;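 further: frequency after pTyr selection over input frequency; kinase dosed for 20-30% of maximal phosphorylation in three min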
Outcome label depends on phosphorylation enrichment relative to 0.5: at/above gives Condition met, below gives Condition not met.

Chain	Assayed System	Answer Label
ESKKHYGYSLY [ANXA3_Y295_F291S]	Fer (mouse)	Condition not met
RKPDIYGRLAS [MCM4_Y459_E460G]	Fer (mouse)	Condition met
CTAIHYNFMCN [TP53_Y234_T231A_YF]	Fer (mouse)	Condition not met
KWTVDYLGQVG [TYW5_Y48_S50G]	Fer (mouse)	Condition not met
ILTLKYPIERG [ACTA1_Y71_H75R]	Fer (mouse)	Condition not met

Is the recorded value of phosphorylation enrichment equal to or greater than 0.5 for this sequence? GADAIYDHVNE [UQCR10_Y44_I47V]
Condition met

* * *

- Tested on: c-Abl (mouse)
- Procedure Text: phosphorylation enrichment, bacterial display (enrichment ratio); higher = better substrate or ligand; peptides without Tyr show the background
Please note: 1 (yes) applies when phosphorylation enrichment is 0.8 or greater, and 0 (no) applies otherwise.

# example entries with known answers
Chain	Answer Label
RTLIRYANLGN [BEST1_Y131]	1 (yes)
ATGGFYSFGGG [KRT24_Y120_YF]	0 (no)
QRRNVYFFSFL [PTEN_Y176_Y174N_YF]	0 (no)
KSLFHHRQYSA [CPS1_Y1491_Y1491H]	0 (no)
PYSSPYENSLI [EPOR_Y489_N487S]	1 (yes)

Please check the record AFLLLYFNDTH [BMP15_Y235] and state if its phosphorylation enrichment is at or above 0.8.
1 (yes)

* * *

phosphorylation enrichment by entry:
- Assayed System: EPHB2 (UniProt P29323)
- Sequence (P29323 whole entry, looked up): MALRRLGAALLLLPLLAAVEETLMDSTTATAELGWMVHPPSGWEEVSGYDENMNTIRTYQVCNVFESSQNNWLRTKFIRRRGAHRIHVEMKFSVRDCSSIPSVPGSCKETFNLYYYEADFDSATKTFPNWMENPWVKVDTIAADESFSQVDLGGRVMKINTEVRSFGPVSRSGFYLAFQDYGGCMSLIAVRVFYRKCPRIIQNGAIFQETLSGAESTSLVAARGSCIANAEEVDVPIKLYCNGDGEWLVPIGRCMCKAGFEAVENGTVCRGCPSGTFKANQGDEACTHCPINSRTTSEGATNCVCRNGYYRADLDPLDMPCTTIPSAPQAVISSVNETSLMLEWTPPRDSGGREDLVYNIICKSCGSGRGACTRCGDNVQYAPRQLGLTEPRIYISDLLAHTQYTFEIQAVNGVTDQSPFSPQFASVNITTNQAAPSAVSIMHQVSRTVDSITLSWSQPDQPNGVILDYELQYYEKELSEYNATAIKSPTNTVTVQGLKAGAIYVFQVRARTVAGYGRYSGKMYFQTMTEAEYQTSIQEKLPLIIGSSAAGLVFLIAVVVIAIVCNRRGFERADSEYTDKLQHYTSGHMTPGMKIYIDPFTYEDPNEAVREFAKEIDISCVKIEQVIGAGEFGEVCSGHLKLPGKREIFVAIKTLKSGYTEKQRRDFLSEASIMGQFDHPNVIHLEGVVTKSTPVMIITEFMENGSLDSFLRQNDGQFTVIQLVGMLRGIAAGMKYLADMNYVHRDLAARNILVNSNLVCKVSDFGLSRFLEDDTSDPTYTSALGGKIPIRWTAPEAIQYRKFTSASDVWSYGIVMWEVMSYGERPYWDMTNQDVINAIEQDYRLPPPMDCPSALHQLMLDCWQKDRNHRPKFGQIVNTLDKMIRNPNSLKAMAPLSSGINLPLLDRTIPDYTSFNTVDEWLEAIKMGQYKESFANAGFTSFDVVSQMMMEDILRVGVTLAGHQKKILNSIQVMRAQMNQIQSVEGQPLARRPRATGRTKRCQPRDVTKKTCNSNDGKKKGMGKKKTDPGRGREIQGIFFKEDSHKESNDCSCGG
- Procedure Text: phosphorylation enrichment, bacterial display (enrichment ratio); higher = better substrate or ligand; peptides without Tyr show the background
Please reply with the number alone, leaving off any unit.

Chain	phosphorylation enrichment
FQKNIYSEELR [LMNA_Y211]	0.728
GCAGKYIAMVM [CYP19A1_Y441]	0.474
PMDTFYDSTRG [DYNC2H1_Y2231_YF]	1.04
LNPFIYSLRNW [OR1A2_Y288]	0.819
QRRNVYFFSFL [PTEN_Y176_Y174N_YF]	0.475

Field request: phosphorylation enrichment | item: LENSTYQFIRV [CRB1_Y760_YF]
1.75

Given the sequence LPKVSYMKAID [GLRA1_Y307_V308M] , what is its reported phosphorylation enrichment?
0.711

Reported phosphorylation enrichment for HDHYGYRQSVT [CD55_Y245_R240H] : what is it?
0.713

So what does the record say about phosphorylation enrichment for SVTCTYSPAIN [TP53_Y126_L130I] ?
0.735

Fill blank: measured phosphorylation enrichment of the sequence SGAWSYNTSTE [SELE_Y24] is ____.
0.502

* * *

- Assayed System: Fyn (UniProt P06241)
- Sequence (P06241 whole entry, looked up): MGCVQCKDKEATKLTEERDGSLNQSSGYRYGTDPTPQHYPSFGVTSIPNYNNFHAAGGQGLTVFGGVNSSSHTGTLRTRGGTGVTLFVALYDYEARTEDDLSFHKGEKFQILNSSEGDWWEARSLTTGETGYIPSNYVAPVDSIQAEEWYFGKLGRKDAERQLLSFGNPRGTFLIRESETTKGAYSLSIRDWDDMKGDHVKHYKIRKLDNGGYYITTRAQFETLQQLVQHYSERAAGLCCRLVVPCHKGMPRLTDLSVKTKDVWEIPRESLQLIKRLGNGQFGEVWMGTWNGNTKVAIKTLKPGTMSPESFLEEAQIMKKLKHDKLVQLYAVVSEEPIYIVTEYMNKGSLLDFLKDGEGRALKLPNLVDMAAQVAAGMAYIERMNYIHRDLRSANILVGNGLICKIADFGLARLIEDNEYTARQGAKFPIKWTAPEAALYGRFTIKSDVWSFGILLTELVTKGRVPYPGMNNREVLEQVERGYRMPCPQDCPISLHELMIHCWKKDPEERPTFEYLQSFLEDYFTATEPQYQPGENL
- Procedure Text: phosphorylation enrichment, bacterial display (enrichment ratio); higher = better substrate or ligand; peptides without Tyr show the background
Rule: phosphorylation enrichment under 0.6 gives NO, otherwise YES.

Chain	Assayed System	Answer Label
LGKLIYPVGFW [NTHL1_Y177]	Fyn (UniProt P06241)	YES
ANVIHYFPTQA [SLC25A4_Y81_R80H]	Fyn (UniProt P06241)	NO
PMQLPYDSRWE [PDGFRA_Y582]	Fyn (UniProt P06241)	YES

In plain terms: is recorded phosphorylation enrichment at least 0.6 for GLAELYEFKKK [CKAP5_Y1854_YF] ?
NO

Hi, just wondering whether RSRSPYSSRHS [CDK13_Y415] shows phosphorylation enrichment of 0.6 or higher.
NO

Can MCITQYKRESQ [PRNP_Y218_E219K] be said to have phosphorylation enrichment at or above 0.6?
NO

hey, is phosphorylation enrichment for this one >= 0.6? SSDPDYRAAVD [GLB1_Y154_L155R]
NO

Could you verify whether the entry INNIDYFKNTT [FGFR2_Y656_K659N_YF] shows phosphorylation enrichment of no less than 0.6?
NO

Quick check: does DAASNYARGHF [TUBA3E_Y103_YF] have phosphorylation enrichment greater than or equal to 0.6?
NO

Confirm if phosphorylation enrichment reported for the sequence KFGTNYRVGSS [CPO_Y278_YF] is 0.6 or above.
NO

Reported phosphorylation enrichment reaches at least 0.6 for KQRKEYMHRRQ [IQGAP2_Y710] ?
NO

Confirm if phosphorylation enrichment reported for the sequence VPVDGYISGLL [PAK6_Y81_M76V] is 0.6 or above.
NO
